# test: Tmax in rat plasma at 10 mg/kg, po
# Format: ADME, organism-based
reported.endpoint: Tmax
Phrase the answer as number then unit, nothing more needed.

So, `CCN/C(=N\S(=O)(=O)c1ccc(N)cc1)N1CC2(C=N1)CCCC2` ? Its Tmax was 30 min

====

# System: MDR
# test: in vitro
# measurement.conditions: pig, LLC-PK1
# Description: Permeability across pig LLC-PK1 cells expressing MDR assessed as ratio of bottom to top transport over top to bottom transport at 1 ug/ml after 3 hrs by LC/MS analysis
Decide using efflux ratio at 3 h, 1 ug/ml: a value greater than or equal to 3 is Condition met, a smaller one is Condition not met.

{"molecule": "CCN/C(=N\\S(=O)(=O)c1ccc2c(c1)CCN2)N1CC2(C=N1)CCCC2", "measurement.target": "MDR", "assigned.label": "Condition not met"}
{"molecule": "CCN/C(=N\\S(=O)(=O)c1cccc(Cl)c1)N1N=CCC1c1ccc(N)cc1 (stereo not given)", "measurement.target": "MDR", "assigned.label": "Condition not met"}
{"molecule": "CCN/C(=N\\S(=O)(=O)c1cccc(OC)c1)N1CC2(C=N1)CCCC2", "measurement.target": "MDR", "assigned.label": "Condition met"}

Problem: # check: efflux ratio at 3 h, 1 ug/ml of `CCN/C(=N\S(=O)(=O)c1ccc(O)c(Cl)c1)N1CC2(C=N1)CCCC2` is greater than or equal to 3
Result: Condition not met

Problem: # check: efflux ratio at 3 h, 1 ug/ml of `CCN/C(=N\S(=O)(=O)c1ccc(N)cc1)N1CC2(C=N1)CCCCC2` is greater than or equal to 3
Result: Condition met
